# Tested on: Danio rerio Tg(wt1b:EGFP) embryo, pronephros
# assayExplanation: glomerular separation, fold change vs DMSO control; higher = glomeruli further apart (abnormal)
# conditionSummary: 25 µM; exposure: 24-48 hpf
Where a name gives a salt, the structure may show the parent alone.
observable: glomerular separation

INSERT INTO measurements (compound, observable, numericreadout) VALUES
  ('NC[C@H]1CC[C@H](C(=O)O)CC1', 'glomerular separation', 0.901),
  ('CNC(C)CCC=C(C)C (centres undefined) [Isometheptene mucate]', 'glomerular separation', 0.941),
  ('NS(=O)(=O)c1cc(Cl)c(Cl)c(S(N)(=O)=O)c1 [Dichlorphenamide]', 'glomerular separation', 0.91),
  ('C=C1c2cccc(O)c2C(=O)C2=C(O)[C@]3(O)C(=O)C(C(N)=O)=C(O)[C@@H](N(C)C)[C@@H]3[C@@H](O)[C@H]12 [Methacycline hydrochloride]', 'glomerular separation', 0.724);

###

Reported fraction of imaged embryos annotated as normal kidney is given for each of the following compounds.
# System: Danio rerio Tg(wt1b:EGFP) embryo, pronephros
# assayExplanation: fraction of imaged embryos annotated as normal kidney; higher = less nephrotoxic; extreme values may be limits of the assay
# conditionSummary: 25 µM; exposure: 24-48 hpf
Structures can show the parent of a compound that is named as a salt.
observable: fraction of imaged embryos annotated as normal kidney

INSERT INTO results (compound, numericreadout) VALUES
  ('Cc1cnc(C(=O)NCCc2ccc(S(=O)(=O)NC(=O)NC3CCCCC3)cc2)cn1 [Glipizide]', 0.833),
  ('CCCCN(CCCC)CCC(O)c1cc2c(Cl)cc(Cl)cc2c2cc(C(F)(F)F)ccc12 (centres undefined) [Halofantrine hydrochloride]', 0),
  ('CC(COc1ccccc1)N(CCCl)Cc1ccccc1 (centres undefined) [Phenoxybenzamine hydrochloride]', 0.583),
  ('C[C@H](N)[C@H](O)c1cccc(O)c1 [Metaraminol bitartrate]', 0.667);

###

# Tested on: Danio rerio Tg(wt1b:EGFP) embryo, pronephros
# assayExplanation: glomerular width (mean of left and right), fold change vs DMSO control; higher = wider glomerulus
# conditionSummary: 25 µM; exposure: 24-48 hpf
Where a name gives a salt, the structure may show the parent alone.
Reported glomerular width is given for each of the following compounds.
observable: glomerular width

INSERT INTO results (compound, numericreadout) VALUES
  ('CO[C@H]1C[C@H](O[C@H]2[C@H](C)[C@@H](O[C@@H]3O[C@H](C)C[C@H](N(C)C)[C@H]3OC(C)=O)[C@@H](C)C[C@@]3(CO3)C(=O)[C@H](C)[C@@H](OC(C)=O)[C@@H](C)[C@@H](C)OC(=O)[C@@H]2C)O[C@@H](C)[C@@H]1OC(C)=O', 1.12),
  ('COC(=O)C1=C(C)NC(C)=C(C(=O)OCCN(C)Cc2ccccc2)C1c1cccc([N+](=O)[O-])c1 (configuration not stated) [Nicardipine hydrochloride]', 1),
  ('O=C(O)Cc1ccccc1Nc1c(Cl)cccc1Cl [Diclofenac sodium]', 0.492),
  ('CCCNCC(O)COc1ccccc1C(=O)CCc1ccccc1 (configuration not stated) [Propafenone hydrochloride]', 1.05),
  ('COc1ccc2[nH]cc(CCNC(C)=O)c2c1', 0.989),
  ('CCN(CC)CCOC(=O)c1ccc(N)cc1 [Procaine hydrochloride]', 1.06),
  ('CCCCNC(=O)NS(=O)(=O)c1ccc(C)cc1 [Tolbutamide]', 1.01);

###

# Tested on: Danio rerio Tg(wt1b:EGFP) embryo, pronephros
# assayExplanation: fraction of imaged embryos annotated as normal kidney; higher = less nephrotoxic; extreme values may be limits of the assay
# conditionSummary: 25 µM; exposure: 24-48 hpf
Structures can show the parent of a compound that is named as a salt.
observable: fraction of imaged embryos annotated as normal kidney

INSERT INTO measurements (molecule, numericreadout) VALUES
  ('Cc1cc(-c2ccccc2)nnc1NCCN1CCOCC1 [Minaprine dihydrochloride]', 0.75),
  ('CN1CCN(C(c2ccccc2)c2ccccc2)CC1 [Cyclizine hydrochloride]', 0.833),
  ('CCN(CCO)CCCC(C)Nc1ccnc2cc(Cl)ccc12 (stereo not given) [Hydroxychloroquine sulfate]', 0.833),
  ('NS(=O)(=O)c1cc(Cl)c(Cl)c(S(N)(=O)=O)c1 [Dichlorphenamide]', 0.727),
  ('O=C1C(O)=C([C@H]2CC[C@H](c3ccc(Cl)cc3)CC2)C(=O)c2ccccc21', 0.917);

###

Reported pronephric angle neck segment is given for each of the following compounds.
# System: Danio rerio Tg(wt1b:EGFP) embryo, pronephros
# assayExplanation: pronephric angle neck segment to proximal convoluted tubule (mean of left and right), fold change vs DMSO control; higher = larger pronephric angle
# conditionSummary: 25 µM; exposure: 24-48 hpf
Structures can show the parent of a compound that is named as a salt.
observable: pronephric angle neck segment

INSERT INTO assay_data (compound, numericreadout) VALUES
  ('COc1cccc2c1C(=O)c1c(O)c3c(c(O)c1C2=O)C[C@@](O)(C(C)=O)C[C@@H]3O[C@H]1C[C@H](N)[C@H](O)[C@H](C)O1 [Daunorubicin hydrochloride]', 1.04),
  ('O=C1CC[C@@H](C(=O)N2CSC[C@H]2C(=O)O)N1', 1),
  ('CNCC[C@@H](Oc1ccccc1C)c1ccccc1 [Tomoxetine hydrochloride]', 1),
  ('COc1c2occc2c(OC)c2c(=O)cc(C)oc12', 1.03),
  ('CC#C[C@]1(O)CC[C@H]2[C@@H]3CCC4=CC(=O)CCC4=C3[C@@H](c3ccc(N(C)C)cc3)C[C@@]21C', 1.05),
  ('Oc1ccc(OCc2ccccc2)cc1', 1.21),
  ('CN1CCC(=C2c3ccccc3C=Cc3ccccc32)CC1 [Cyproheptadine hydrochloride]', 1.2),
  ('CCn1cc(C(=O)O)c(=O)c2cc(F)c(N3CCNCC3)nc21', 1.06),
  ('CCCSc1ccc2[nH]c(NC(=O)OC)nc2c1', 1.97),
  ('CCCN[C@H]1CCc2nc(N)sc2C1 [Pramipexole dihydrochloride]', 1.01),
  ('Cc1onc(-c2c(Cl)cccc2Cl)c1C(=O)N[C@@H]1C(=O)N2[C@@H]1SC(C)(C)[C@@H]2C(=O)O [Dicloxacillin sodium salt hydrate]', 0.998),
  ('NC[C@@H]1O[C@@H](O[C@H]2[C@H](O)[C@@H](O[C@H]3O[C@H](CO)[C@@H](O)[C@H](N)[C@H]3O)[C@H](N)C[C@@H]2N)[C@@H](O)[C@H](O)[C@H]1O [Kanamycin A sulfate]', 1.01),
  ('CN(C)[C@@H]1C(O)=C(C(N)=O)C(=O)[C@@]2(O)C(O)=C3C(=O)c4c(O)ccc(Cl)c4[C@@](C)(O)[C@H]3C[C@@H]12 [Chlortetracycline hydrochloride]', 0.969),
  ('C[C@@H]1NC(=O)NC1=O', 0.995),
  ('CC(C)[C@H]1CC[C@H](C(=O)N[C@H](Cc2ccccc2)C(=O)O)CC1 [Nateglinide]', 1.08),
  ('CCCCOc1cc(C(=O)OCCN(CC)CC)ccc1N [Benoxinate hydrochloride]', 0.969),
  ('CCC(=O)O[C@@H](O[P@](=O)(CCCCc1ccccc1)CC(=O)N1C[C@H](C2CCCCC2)C[C@H]1C(=O)O)C(C)C', 1.03),
  ('CCN1CCN(c2cc3c(cc2F)c(=O)c(C(=O)O)cn3C2CC2)CC1', 1.01),
  ('CN(C)CCC(c1ccc(Cl)cc1)c1ccccn1 (configuration not stated) [Chlorpheniramine maleate]', 0.969),
  ('OC(Cn1cncn1)(Cn1cncn1)c1ccc(F)cc1F', 0.978),
  ('CCCCC(=O)O[C@H]1CC[C@H]2[C@@H]3CCc4cc(O)ccc4[C@H]3CC[C@]12C [Estradiol Valerate]', 1.13),
  ('NCc1ccccc1CC(=O)N[C@@H]1C(=O)N2C(C(=O)O)=C(CSc3nnnn3CC(=O)O)CS[C@H]12 [Ceforanide]', 1.08),
  ('Cc1ccc(C(=O)c2ccc(CC(=O)O)n2C)cc1 [Tolmetin sodium salt dihydrate]', 1),
  ('COc1ccccc1OCC(O)CO (configuration not stated)', 1.07),
  ('CS(=O)(=O)c1ccc([C@@H](O)[C@@H](CF)NC(=O)C(Cl)Cl)cc1', 1.01),
  ('COC(=O)[C@H](c1ccccc1Cl)N1CCc2sccc2C1', 1.05),
  ('CN1CCN2c3ccccc3Cc3ccccc3C2C1 (configuration not stated) [Mianserine hydrochloride]', 0.979),
  ('CC1=C(C(=O)O)N2C(=O)[C@@H](NC(=O)[C@H](N)c3ccc(O)cc3)[C@H]2SC1', 0.923),
  ('CO[C@@]1(NC(=O)C(C(=O)O)c2ccc(O)cc2)C(=O)N2C(C(=O)O)=C(CSc3nnnn3C)CO[C@@H]21 (some centres not stated) [Moxalactam disodium salt]', 0.984),
  ('CCN1CCN(C(=O)N[C@@H](C(=O)N[C@@H]2C(=O)N3C(C(=O)O)=C(CSc4nnnn4C)CS[C@H]23)c2ccc(O)cc2)C(=O)C1=O [Cefoperazone dihydrate]', 1.05),
  ('O=C(O)CNC(=O)C(CS)Cc1ccccc1 (configuration not stated)', 0.994),
  ('CN(C/C=C/c1ccccc1)Cc1cccc2ccccc12 [Naftifine hydrochloride]', 0.982);
